Entries below carry reported pIC50 on UniProt P21462.
Sequence (P21462 whole entry): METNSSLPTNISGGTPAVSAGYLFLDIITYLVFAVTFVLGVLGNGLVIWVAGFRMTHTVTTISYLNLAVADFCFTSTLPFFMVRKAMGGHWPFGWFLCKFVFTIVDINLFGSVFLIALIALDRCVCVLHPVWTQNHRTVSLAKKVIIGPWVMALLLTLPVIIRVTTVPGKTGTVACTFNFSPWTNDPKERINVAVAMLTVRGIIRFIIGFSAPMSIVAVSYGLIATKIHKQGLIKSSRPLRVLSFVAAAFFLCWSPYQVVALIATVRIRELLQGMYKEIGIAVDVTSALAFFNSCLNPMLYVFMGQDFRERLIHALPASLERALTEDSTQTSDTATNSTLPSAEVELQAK
One number for each entry, as −log10 of the molar value.

See these solved cases before continuing.
[
  {
    "compound": "COc1ccc(OC)c(C2C(C(=O)c3ccccc3)C(=O)C(=O)N2c2cccnc2)c1 (stereo not given)",
    "recordedNumber": 5.04
  },
  {
    "compound": "COCCCN1C(=O)C(=O)C(C(=O)c2ccccc2)C1c1ccc(O)c(OC)c1 (stereo not given)",
    "recordedNumber": 4.30
  },
  {
    "compound": "COc1ccc(C2C(C(=O)c3ccccc3)C(=O)C(=O)N2c2cccc(Cl)c2)c(OC)c1 (stereo not given)",
    "recordedNumber": 4.32
  },
  {
    "compound": "COc1ccc(C2C(C(=O)c3ccco3)C(=O)C(=O)N2CCN2CCOCC2)c(OC)c1 (stereo not given)",
    "recordedNumber": 5.01
  }
]

// next entry
Item COc1ccc(C2C(C(=O)c3cccs3)C(=O)C(=O)N2CCN2CCOCC2)c(OC)c1 (stereo not given) has what recorded pIC50?
5.36
